Target: CaMK1 (human) (UniProt Q14012)
Sequence (Q14012 whole entry, looked up): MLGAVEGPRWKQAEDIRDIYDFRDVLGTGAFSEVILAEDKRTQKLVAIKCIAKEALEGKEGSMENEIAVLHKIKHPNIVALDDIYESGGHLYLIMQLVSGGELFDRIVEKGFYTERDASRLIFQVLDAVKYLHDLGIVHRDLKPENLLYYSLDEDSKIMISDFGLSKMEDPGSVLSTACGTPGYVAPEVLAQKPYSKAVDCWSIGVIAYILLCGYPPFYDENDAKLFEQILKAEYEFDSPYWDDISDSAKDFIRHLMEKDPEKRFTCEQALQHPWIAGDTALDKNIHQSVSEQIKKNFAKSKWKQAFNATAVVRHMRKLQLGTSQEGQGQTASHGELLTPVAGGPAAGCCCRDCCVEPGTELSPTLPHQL

smiles representation	IC50 (nM)
CN(C)C/C=C/C(=O)Nc1cccc(C(=O)Nc2ccc(Nc3nccc(/C(C#N)=C4\Nc5ccccc5S4)n3)cc2)c1	900

====

Molecular target: MAP3K10 (human) (UniProt Q02779)
Sequence (Q02779 whole entry, looked up): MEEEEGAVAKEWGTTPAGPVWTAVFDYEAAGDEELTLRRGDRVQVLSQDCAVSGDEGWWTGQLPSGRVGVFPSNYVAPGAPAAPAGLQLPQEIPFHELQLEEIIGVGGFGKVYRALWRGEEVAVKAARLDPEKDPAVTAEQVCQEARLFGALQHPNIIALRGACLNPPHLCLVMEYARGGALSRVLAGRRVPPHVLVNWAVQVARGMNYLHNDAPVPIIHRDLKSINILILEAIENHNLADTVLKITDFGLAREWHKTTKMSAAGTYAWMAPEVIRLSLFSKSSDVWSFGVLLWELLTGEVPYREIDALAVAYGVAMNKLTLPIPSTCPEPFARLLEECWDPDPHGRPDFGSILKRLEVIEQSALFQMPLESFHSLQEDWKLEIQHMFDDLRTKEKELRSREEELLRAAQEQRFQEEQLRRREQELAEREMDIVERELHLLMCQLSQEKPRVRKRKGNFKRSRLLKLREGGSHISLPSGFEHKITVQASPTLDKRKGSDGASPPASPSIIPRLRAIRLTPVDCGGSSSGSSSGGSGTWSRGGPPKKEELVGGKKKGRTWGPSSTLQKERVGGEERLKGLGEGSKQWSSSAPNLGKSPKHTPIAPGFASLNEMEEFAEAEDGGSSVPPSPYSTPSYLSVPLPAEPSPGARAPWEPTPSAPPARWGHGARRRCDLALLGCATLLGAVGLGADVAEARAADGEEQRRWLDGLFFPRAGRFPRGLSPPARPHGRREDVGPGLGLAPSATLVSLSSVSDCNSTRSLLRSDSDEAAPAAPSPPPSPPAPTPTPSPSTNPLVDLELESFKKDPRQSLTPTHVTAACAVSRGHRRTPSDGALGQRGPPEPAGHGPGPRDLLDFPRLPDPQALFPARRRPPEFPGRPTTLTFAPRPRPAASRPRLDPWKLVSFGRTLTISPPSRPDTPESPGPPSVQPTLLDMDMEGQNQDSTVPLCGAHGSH
Experiment: KINOMEscan competition binding
Details: compound 1.0 µM

smiles representation	kinase still bound, per cent of control / %
Cc1cc(NC(=O)c2cccc(NC(=O)/C=C/CN(C)C)c2)ccc1Nc1nccc(-c2cccnc2)n1	87
CN(C)C/C=C/C(=O)Nc1cccc(C(=O)Nc2ccc(Nc3nccc(-c4c(-c5ccccc5)nn5ccccc45)n3)cc2)c1	100
CN(C)C/C=C/C(=O)Nc1cccc(C(=O)Nc2ccc(Nc3nccc(-c4cccnc4)n3)cc2)c1	65
CN(C)C/C=C/C(=O)Nc1cccc(C(=O)Nc2ccc(Nc3nccc(/C(C#N)=C4\Nc5ccccc5S4)n3)cc2)c1	68

====

Molecular target: MAPK6 (human)

smiles representation	unit	Kd
CN(C)C/C=C/C(=O)Nc1cccc(C(=O)Nc2ccc(Nc3nccc(-c4cccnc4)n3)cc2)c1	nM	22

====

Target: ACVR1 (human) (UniProt Q04771)
Sequence (Q04771 whole entry, looked up): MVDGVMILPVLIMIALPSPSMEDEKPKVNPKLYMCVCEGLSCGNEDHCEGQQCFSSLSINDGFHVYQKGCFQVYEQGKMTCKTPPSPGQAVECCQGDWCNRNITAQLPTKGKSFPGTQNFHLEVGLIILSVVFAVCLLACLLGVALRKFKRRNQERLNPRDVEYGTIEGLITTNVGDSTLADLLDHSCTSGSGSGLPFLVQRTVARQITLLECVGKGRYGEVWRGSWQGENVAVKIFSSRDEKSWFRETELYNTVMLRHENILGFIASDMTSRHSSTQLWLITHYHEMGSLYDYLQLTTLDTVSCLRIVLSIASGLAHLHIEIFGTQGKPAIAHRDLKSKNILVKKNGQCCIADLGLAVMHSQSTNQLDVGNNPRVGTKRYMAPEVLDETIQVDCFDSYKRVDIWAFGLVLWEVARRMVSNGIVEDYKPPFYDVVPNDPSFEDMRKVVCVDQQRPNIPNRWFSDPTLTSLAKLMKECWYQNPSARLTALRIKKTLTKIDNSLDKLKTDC
Assay: KINOMEscan competition binding
Details: compound 1.0 µM

smiles representation	kinase still bound, per cent of control [%]
Cc1cc(NC(=O)c2cccc(NC(=O)/C=C/CN(C)C)c2)ccc1Nc1nccc(-c2cccnc2)n1	100
CN(C)C/C=C/C(=O)Nc1cccc(C(=O)Nc2ccc(Nc3nccc(/C(C#N)=C4\Nc5ccccc5S4)n3)cc2)c1	100
CN(C)C/C=C/C(=O)Nc1cccc(C(=O)Nc2ccc(Nc3nccc(-c4cccnc4)n3)cc2)c1	70
CN(C)C/C=C/C(=O)Nc1cccc(C(=O)Nc2ccc(Nc3nccc(-c4c(-c5ccccc5)nn5ccccc45)n3)cc2)c1	3.8

====

Catalogue of kinase still bound, per cent of control values
Target: MAPK14 (human) (UniProt Q16539)
Sequence (Q16539 whole entry, looked up): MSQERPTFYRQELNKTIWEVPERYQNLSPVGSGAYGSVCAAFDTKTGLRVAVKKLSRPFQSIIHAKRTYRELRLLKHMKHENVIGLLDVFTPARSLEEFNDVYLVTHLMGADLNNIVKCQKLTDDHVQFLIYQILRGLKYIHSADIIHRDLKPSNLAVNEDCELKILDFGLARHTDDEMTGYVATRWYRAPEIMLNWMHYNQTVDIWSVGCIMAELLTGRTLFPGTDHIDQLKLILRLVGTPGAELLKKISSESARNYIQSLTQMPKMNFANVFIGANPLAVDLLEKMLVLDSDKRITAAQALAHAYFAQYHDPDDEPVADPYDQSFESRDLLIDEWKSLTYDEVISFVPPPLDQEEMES
Test: KINOMEscan competition binding
Details: compound 1.0 µM
quantity kind: kinase still bound, per cent of control (%)

smiles representation	quantity kind	unit	observed measurement
CN(C)C/C=C/C(=O)Nc1cccc(C(=O)Nc2ccc(Nc3nccc(-c4cccnc4)n3)cc2)c1	kinase still bound, per cent of control	%	83
Cc1cc(NC(=O)c2cccc(NC(=O)/C=C/CN(C)C)c2)ccc1Nc1nccc(-c2cccnc2)n1	kinase still bound, per cent of control	%	100
CN(C)C/C=C/C(=O)Nc1cccc(C(=O)Nc2ccc(Nc3nccc(-c4c(-c5ccccc5)nn5ccccc45)n3)cc2)c1	kinase still bound, per cent of control	%	2.1
CN(C)C/C=C/C(=O)Nc1cccc(C(=O)Nc2ccc(Nc3nccc(/C(C#N)=C4\Nc5ccccc5S4)n3)cc2)c1	kinase still bound, per cent of control	%	95

====

Molecular target: UniProt:Q15208
Sequence (Q15208 whole entry, looked up): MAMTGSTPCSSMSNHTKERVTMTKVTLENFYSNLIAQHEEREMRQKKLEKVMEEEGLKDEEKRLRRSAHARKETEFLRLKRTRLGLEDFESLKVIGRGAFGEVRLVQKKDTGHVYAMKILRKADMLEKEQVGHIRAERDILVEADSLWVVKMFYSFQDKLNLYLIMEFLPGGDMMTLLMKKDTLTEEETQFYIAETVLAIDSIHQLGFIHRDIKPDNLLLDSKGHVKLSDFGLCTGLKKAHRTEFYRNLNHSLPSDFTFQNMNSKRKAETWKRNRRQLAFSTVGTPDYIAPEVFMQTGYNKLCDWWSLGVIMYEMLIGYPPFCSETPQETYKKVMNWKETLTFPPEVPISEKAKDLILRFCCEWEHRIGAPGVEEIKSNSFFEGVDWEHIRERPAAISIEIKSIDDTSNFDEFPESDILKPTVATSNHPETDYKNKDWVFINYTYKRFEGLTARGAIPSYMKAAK
Assay: KINOMEscan competition binding
Details: compound 1.0 µM
# reported kinase still bound, per cent of control; entries follow

smiles representation	kinase still bound, per cent of control [%]
CN(C)C/C=C/C(=O)Nc1cccc(C(=O)Nc2ccc(Nc3nccc(-c4c(-c5ccccc5)nn5ccccc45)n3)cc2)c1	97
Cc1cc(NC(=O)c2cccc(NC(=O)/C=C/CN(C)C)c2)ccc1Nc1nccc(-c2cccnc2)n1	97
CN(C)C/C=C/C(=O)Nc1cccc(C(=O)Nc2ccc(Nc3nccc(-c4cccnc4)n3)cc2)c1	100
CN(C)C/C=C/C(=O)Nc1cccc(C(=O)Nc2ccc(Nc3nccc(/C(C#N)=C4\Nc5ccccc5S4)n3)cc2)c1	100
